Data provenance is patent US11427548B2.

# SYSTEM TESTED: Androgen Receptor (Homo sapiens, UniProt P10275+P40337, T878A)
# Construct: Compounds have been evaluated in this assay in LNCaP and/or VCaP cells utilizing similar protocols; endogenous in cells; host or cells: LNCaP cells
# Sequence (P10275 whole entry T878A): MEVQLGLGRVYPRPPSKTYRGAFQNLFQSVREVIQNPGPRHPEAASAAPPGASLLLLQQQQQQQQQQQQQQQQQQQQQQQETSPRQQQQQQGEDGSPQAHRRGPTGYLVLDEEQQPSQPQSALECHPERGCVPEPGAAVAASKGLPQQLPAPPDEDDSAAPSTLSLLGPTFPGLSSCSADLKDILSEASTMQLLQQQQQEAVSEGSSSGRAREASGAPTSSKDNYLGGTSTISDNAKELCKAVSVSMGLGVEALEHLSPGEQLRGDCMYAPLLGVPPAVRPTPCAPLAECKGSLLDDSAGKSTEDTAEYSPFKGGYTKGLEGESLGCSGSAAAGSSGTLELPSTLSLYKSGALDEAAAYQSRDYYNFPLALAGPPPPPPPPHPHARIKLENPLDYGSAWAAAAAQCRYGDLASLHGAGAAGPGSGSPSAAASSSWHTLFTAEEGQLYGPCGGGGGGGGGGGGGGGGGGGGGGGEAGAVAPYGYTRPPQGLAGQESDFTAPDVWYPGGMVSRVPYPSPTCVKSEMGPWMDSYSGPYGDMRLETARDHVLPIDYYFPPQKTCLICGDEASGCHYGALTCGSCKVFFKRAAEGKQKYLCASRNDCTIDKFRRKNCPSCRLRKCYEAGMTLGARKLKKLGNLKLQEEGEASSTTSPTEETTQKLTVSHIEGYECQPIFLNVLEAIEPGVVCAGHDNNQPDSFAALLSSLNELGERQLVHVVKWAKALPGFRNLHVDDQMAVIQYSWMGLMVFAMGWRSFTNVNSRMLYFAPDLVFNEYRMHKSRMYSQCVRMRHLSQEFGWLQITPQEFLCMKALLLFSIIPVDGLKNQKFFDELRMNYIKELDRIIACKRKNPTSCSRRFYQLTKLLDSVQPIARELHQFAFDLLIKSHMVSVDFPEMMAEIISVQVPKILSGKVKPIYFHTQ
# Sequence (P40337 whole entry): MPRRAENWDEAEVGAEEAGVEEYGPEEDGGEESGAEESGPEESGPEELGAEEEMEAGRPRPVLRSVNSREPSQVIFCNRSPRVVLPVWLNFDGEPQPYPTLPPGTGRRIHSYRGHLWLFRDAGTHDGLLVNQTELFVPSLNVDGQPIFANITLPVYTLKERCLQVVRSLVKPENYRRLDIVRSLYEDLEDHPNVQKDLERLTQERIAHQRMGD
# Sequence (Q15369 whole entry partner): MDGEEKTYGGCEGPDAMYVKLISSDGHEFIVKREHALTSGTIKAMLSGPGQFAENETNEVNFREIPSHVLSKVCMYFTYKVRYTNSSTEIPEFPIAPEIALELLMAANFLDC
# Sequence (Q15370 whole entry partner): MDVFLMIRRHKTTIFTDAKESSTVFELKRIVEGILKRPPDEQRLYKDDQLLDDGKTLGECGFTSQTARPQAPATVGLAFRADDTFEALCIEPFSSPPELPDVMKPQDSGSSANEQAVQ
# PROTOCOL: Androgen Receptor ELISA assay (PathScan AR ELISA) in LNCaP cells: AR degradation, Dmax and DC50
# Type: cell-based
# CONDITIONS USED: concentration that caused 50% Androgen Receptor degradation
Listed next: entries and their corresponding DC50.
PROPERTY LABEL: DC50

{"columns": ["STRUCTURE SMILES STRING", "REPORTED RESULT"],
 "data": [
  ["Cc1ncsc1-c1ccc(CNC(=O)[C@@H]2C[C@H](O)CN2C(=O)[C@H](C(C)C)N2Cc3ccccc3C2=O)c(OCCOCCOCCOc2ccc(N3C(=S)N(c4ccc(C#N)c(C(F)(F)F)c4)C(=O)C3(C)C)cc2)c1", "51 to 500 nM"],
  ["CCC(=O)N[C@H](C(=O)N1C[C@H](O)C[C@H]1C(=O)NCc1ccc(-c2scnc2C)cc1OCCOCCOCCOc1ccc(N2C(=O)N(c3ccc(C#N)c(C(F)(F)F)c3)C(=O)C2(C)C)cc1)C(C)(C)C", "> 501 nM"],
  ["Cc1ncsc1-c1ccc(CNC(=O)[C@@H]2C[C@@H](O)CN2C(=O)[C@H](C(C)C)N2Cc3ccccc3C2=O)c(OCCOCCOCCCCOCCOCCOc2ccc(N3C(=S)N(c4ccc(C#N)c(C(F)(F)F)c4)C(=O)C3(C)C)cc2)c1", "51 to 500 nM"]
]}
